Measured values drawn from ChEMBL document CHEMBL1275345 for this set.

Target: Adenosine receptor A3 (Homo sapiens)
Sequence (whole entry): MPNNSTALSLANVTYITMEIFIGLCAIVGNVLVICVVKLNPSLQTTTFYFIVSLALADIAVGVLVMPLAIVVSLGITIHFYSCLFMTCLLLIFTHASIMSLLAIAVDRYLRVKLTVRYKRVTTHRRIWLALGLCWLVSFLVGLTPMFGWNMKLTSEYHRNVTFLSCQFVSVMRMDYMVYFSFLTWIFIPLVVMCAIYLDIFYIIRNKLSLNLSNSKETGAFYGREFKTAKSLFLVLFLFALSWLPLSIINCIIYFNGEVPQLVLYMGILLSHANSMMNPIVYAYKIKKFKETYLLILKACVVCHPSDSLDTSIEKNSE
Assay: Displacement of [3H]NECA from human adenosine A3 receptor expressed in HeLa cells at 10 uM after 180 mins
Format: cell-based
Active and inactive are the calls of the source. The calls are words filed in the database; no cut-off is given here.
metric: inhibition

smiles_code: Cc1nn(Cc2ccccc2)c(=O)c2nc(C)n3nc(-c4ccccc4)cc3c12
target_entity: Adenosine receptor A3 (Homo sapiens)
recorded_value: < 50%
//
smiles_code: Cc1nc2c(=O)n(Cc3ccccc3)nc(-c3cccc(F)c3)c2c2cc(-c3ccccc3)nn12
target_entity: Adenosine receptor A3 (Homo sapiens)
recorded_value: inactive
//
smiles_code: Cc1nc2c(=O)n(Cc3ccccc3)nc(-c3ccncc3)c2c2cc(-c3ccccc3)nn12
target_entity: Adenosine receptor A3 (Homo sapiens)
recorded_value: inactive
//
smiles_code: Cc1nc2c(=O)n(Cc3ccccc3)nc(-c3cccc(F)c3)c2c2cc(-c3ccsc3)nn12
target_entity: Adenosine receptor A3 (Homo sapiens)
recorded_value: inactive

Ask | Request body: readout inhibition, system Adenosine receptor A3 (Homo sapiens), query `Cc1nn(Cc2ccccc2)c(=O)c2ncn3nccc3c12` . Return the value.
Reply | < 50%
